Test system: HuCCT1 (Biliary Tract Carcinoma)
assay_comment: Bliss excess, mean over the matrix (fraction); higher = more synergy;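 further: after 72 h of two-drug dosing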
measured_quantity: Bliss excess
Reply with the value as a number alone.

[in] Item: C=CCn1c(=O)c2cnc(Nc3ccc(N4CCN(C)CC4)cc3)nc2n1-c1cccc(C(C)(C)O)n1 [AZD1775] + CCc1c2c(nc3ccc(O)cc13)-c1cc3c(c(=O)n1C2)COC(=O)[C@]3(O)CC [SN-38] (first compound max 1 µM, partner max 0.3 µM) Test system: HuCCT1 (Biliary Tract Carcinoma) Read-out: Bliss excess Value: ?
[out] -0.0281

[in] Form field: Bliss excess recorded for COc1nnc2ccc(N3CCC(c4ccc(OCCN5CCN(C)C(=O)[C@H]5C)cc4)CC3)nn12 [AZD5153] + Cn1cnc2c(F)c(Nc3ccc(Br)cc3Cl)c(C(=O)NOCCO)cc21 [Selumetinib] (first compound max 1 µM, 7x7, partner max 10 µM) with HuCCT1 (Biliary Tract Carcinoma) (enter value)
[out] 0.0453

[in] Value wanted: Bliss excess (HuCCT1 (Biliary Tract Carcinoma)) of entry NC1(C(=O)N[C@@H](CCO)c2ccc(Cl)cc2)CCN(c2ncnc3[nH]ccc23)CC1 [Capivasertib] + C[C@@H]1COCCN1C2=NC(=NC(=C2)C3(CC3)[S@](=N)(=O)C)C4=C5C=CNC5=NC=C4 [AZD6738] (first compound max 10 µM, 7x7, partner max 10 µM)
[out] -0.0335

[in] Kindly state the measured Bliss excess obtained for COc1cccc(OCCCN)c1-c1cc(Nc2cnc(C#N)cn2)n[nH]1 [Prexasertib] + CCc1c2c(nc3ccc(O)cc13)-c1cc3c(c(=O)n1C2)COC(=O)[C@]3(O)CC [SN-38] (first compound max 1 µM, 7x7, partner max 0.3 µM) with HuCCT1 (Biliary Tract Carcinoma).
[out] -0.0044

###

System: LNZTA3WT4 (Low Grade Glioma)
assay_comment: Bliss excess, mean over the matrix (fraction); higher = more synergy
Label Criterion met when Bliss excess >= -0.03; otherwise Criterion not met.

[in] Answer whether Bliss excess of CN(CCO)CC[C@H](CSc1ccccc1)Nc1ccc(S(=O)(=O)NC(=O)c2ccc(N3CCC([C@@H](O)c4ccccc4-c4ccc(Cl)cc4)CC3)cc2)cc1S(=O)(=O)C(F)(F)F [AZD4320] + CC(=O)O[C@H]1C(=O)[C@@]2(C)[C@H]([C@H](OC(=O)c3ccccc3)[C@]3(O)C[C@H](OC(=O)[C@H](O)[C@@H](NC(=O)c4ccccc4)c4ccccc4)C(C)=C1C3(C)C)[C@]1(OC(C)=O)CO[C@@H]1C[C@@H]2O [Paclitaxel] (first compound max 1 µM, 7x7, partner max 3 µM) is greater than or equal to -0.03.
[out] Criterion met

[in] I'd appreciate it if you could say whether C=CCn1c(=O)c2cnc(Nc3ccc(N4CCN(C)CC4)cc3)nc2n1-c1cccc(C(C)(C)O)n1 [AZD1775] + C[C@@H]1COCCN1C2=NC(=NC(=C2)C3(CC3)[S@](=N)(=O)C)C4=C5C=CNC5=NC=C4 [AZD6738] (first compound max 1 µM, partner max 10 µM) has Bliss excess at least equal to -0.03.
[out] Criterion met

[in] Quick check, Bliss excess >= -0.03? CN(CCO)CC[C@H](CSc1ccccc1)Nc1ccc(S(=O)(=O)NC(=O)c2ccc(N3CCC([C@@H](O)c4ccccc4-c4ccc(Cl)cc4)CC3)cc2)cc1S(=O)(=O)C(F)(F)F [AZD4320] + C[C@@H](Nc1cc(F)cc(F)c1)c1cc(C(=O)N(C)C)cc2c(=O)cc(N3CCOCC3)oc12 [AZD8186] (first compound max 1 µM, 7x7, partner max 3 µM)
[out] Criterion met

[in] State whether the measured Bliss excess reaches -0.03, counting equality as reaching it, for COc1nnc2ccc(N3CCC(c4ccc(OCCN5CCN(C)C(=O)[C@H]5C)cc4)CC3)nn12 [AZD5153] + CCN(CCO)CCCOc1ccc2c(Nc3cc(CC(=O)Nc4cccc(F)c4)[nH]n3)ncnc2c1 [AZD2811] (first compound max 1 µM, 7x7, partner max 1 µM)
[out] Criterion not met

[in] For this compound, is measured Bliss excess -0.03 or higher? CS(=O)(=O)CCNCc1ccc(-c2ccc3ncnc(Nc4ccc(OCc5cccc(F)c5)c(Cl)c4)c3c2)o1 [Lapatinib] + NC1(c2ccc(-c3nc4ccn5c(=O)[nH]nc5c4cc3-c3ccccc3)cc2)CCC1 [MK-2206] (first compound max 10 µM, 7x7, partner max 10 µM)
[out] Criterion not met

[in] Quick check, Bliss excess >= -0.03? CCN(CCO)CCCOc1ccc2c(Nc3cc(CC(=O)Nc4cccc(F)c4)[nH]n3)ncnc2c1 [AZD2811] + O=C(c1cc(Cc2n[nH]c(=O)c3ccccc23)ccc1F)N1CCN(C(=O)C2CC2)CC1 [Olaparib] (first compound max 1 µM, 7x7, partner max 10 µM)
[out] Criterion met
